# TARGET_SYSTEM: Nav1.5 (Homo sapiens)
# TEST_DETAILS: in vitro
# MEASUREMENT_SETUP: human, pH 7.4, Nav1.5 IC50 (peak INa inhibition)
EXPERIMENTAL_ENDPOINT: IC50 (µM)
Answer in µM, number only, no unit symbol.

Q) Record request: IC50 value, item CN(CCOc1ccc([N+](=O)[O-])cc1)CCc1ccccc1 [Dofe45]
A) 6.4

----------
# TARGET_SYSTEM: Nav1.5 (Homo sapiens)
# TEST_DETAILS: Sodium current inhibition in HEK cells stably expressing Nav1.5, planar patch clamp
# MEASUREMENT_SETUP: Nav1.5 IC50 (peak INa inhibition), holding potential -140 mV, 0.2 Hz
EXPERIMENTAL_ENDPOINT: pIC50
Remember the convention: pIC50 equals -log10 of concentration in molar.

CN(CCOc1ccc([N+](=O)[O-])cc1)CCc1ccccc1 [Dofe45]
4.16
COc1ccc(OCCN(C)CCc2ccccc2)cc1 [Dofe42]
4.11

Q) May I ask what pIC50 has been recorded for CN(CCOc1ccc(Cl)c(Cl)c1)CCc1ccccc1 [Dofe44] ?
A) 4.63

----------
# TARGET_SYSTEM: UniProt Q12809
# Sequence (Q12809 whole entry): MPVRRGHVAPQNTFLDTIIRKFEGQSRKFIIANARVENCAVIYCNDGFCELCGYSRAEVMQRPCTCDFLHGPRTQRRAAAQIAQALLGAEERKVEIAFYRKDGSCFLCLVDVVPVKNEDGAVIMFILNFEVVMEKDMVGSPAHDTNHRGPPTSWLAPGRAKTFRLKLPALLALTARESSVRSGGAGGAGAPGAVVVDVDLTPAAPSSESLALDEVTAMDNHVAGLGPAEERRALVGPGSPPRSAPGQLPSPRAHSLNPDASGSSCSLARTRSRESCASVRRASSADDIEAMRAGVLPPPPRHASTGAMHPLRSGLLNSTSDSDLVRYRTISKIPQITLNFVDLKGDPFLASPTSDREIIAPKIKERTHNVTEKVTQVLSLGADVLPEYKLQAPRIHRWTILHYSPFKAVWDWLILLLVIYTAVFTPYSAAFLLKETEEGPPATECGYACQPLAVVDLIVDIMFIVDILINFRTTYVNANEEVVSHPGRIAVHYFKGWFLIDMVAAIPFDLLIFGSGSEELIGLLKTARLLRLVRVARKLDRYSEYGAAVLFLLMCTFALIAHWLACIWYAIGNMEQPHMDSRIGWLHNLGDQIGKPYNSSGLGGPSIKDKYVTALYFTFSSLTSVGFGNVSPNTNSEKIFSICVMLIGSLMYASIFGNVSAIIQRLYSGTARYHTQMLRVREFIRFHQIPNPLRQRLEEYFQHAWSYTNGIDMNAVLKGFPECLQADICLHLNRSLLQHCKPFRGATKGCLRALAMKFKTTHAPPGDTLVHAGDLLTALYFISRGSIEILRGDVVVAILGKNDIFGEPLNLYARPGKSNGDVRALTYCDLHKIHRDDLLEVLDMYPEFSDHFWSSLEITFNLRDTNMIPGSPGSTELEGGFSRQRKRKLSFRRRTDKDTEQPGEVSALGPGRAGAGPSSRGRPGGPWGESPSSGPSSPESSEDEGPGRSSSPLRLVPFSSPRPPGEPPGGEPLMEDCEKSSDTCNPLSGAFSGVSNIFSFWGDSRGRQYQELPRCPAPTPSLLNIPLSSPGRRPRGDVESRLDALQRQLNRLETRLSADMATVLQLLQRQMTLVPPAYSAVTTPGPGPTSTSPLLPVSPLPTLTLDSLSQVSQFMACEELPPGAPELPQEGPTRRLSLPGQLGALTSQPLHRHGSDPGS
# TEST_DETAILS: hERG current inhibition, automated planar patch clamp in HEK293 cells stably expressing hERG
pIC50: −log10 of the molar value.
Tick yes if pIC50 is 8 or greater. Tick no if pIC50 is less than 8.

CN(CCOc1ccc(Cl)c(Cl)c1)CCc1ccccc1
no
CN(CCCOc1ccc([N+](=O)[O-])cc1)Cc1ccc([N+](=O)[O-])cc1
no
COc1ccc(OCCN(C)CCc2ccccc2)cc1
no
CN(CCOc1ccc([N+](=O)[O-])cc1)CCc1ccc([N+](=O)[O-])cc1
no
CN(CCOc1ccccc1)CCc1ccccc1
no

Q) Is pIC50 at least 8? Consider CCN(CCOc1ccc([N+](=O)[O-])cc1)CCc1ccc([N+](=O)[O-])cc1
A) yes

----------
# System: hiPSC-CMs
# TEST_DETAILS: Optical measurement of action potential duration (APD90) in hiPSC-CMs using voltage-sensitive dye di-4-ANEPPS
# MEASUREMENT_SETUP: Homo sapiens, 0.5 h, read-out: Changes in APD90 in hiPSC-CMs, 10 nM, 30 min exposure
EXPERIMENTAL_ENDPOINT: activity at 0.01 µM (%)
Your answer is read as %, so omit the unit and give the number.

CN(CCOc1ccc([N+](=O)[O-])cc1)CCc1ccc([N+](=O)[O-])cc1
159
CN(CCOc1ccc(NS(C)(=O)=O)cc1)CCc1ccc(NS(C)(=O)=O)cc1 [Dofetilide, reference compound]
641
CN(CCCCOc1ccc([N+](=O)[O-])cc1)CCc1ccc([N+](=O)[O-])cc1
389

Q) Request body: readout activity at 0.01 µM, system hiPSC-CMs, query O=[N+]([O-])c1ccc(CCN(CCF)CCOc2ccc([N+](=O)[O-])cc2)cc1 . Return the value.
A) 112

----------
# TARGET_SYSTEM: Cav1.2 (rabbit α1-subunit with β2a and α2-δ1) (Oryctolagus cuniculus, UniProt P15381)
# TEST_DETAILS: in vitro
# MEASUREMENT_SETUP: rabbit, pH 7.4, Cav1.2 IC50 (peak IBa inhibition)
EXPERIMENTAL_ENDPOINT: pIC50
Bear in mind: pIC50 is minus log10 of a mol/L concentration; give just that figure.

Q) Which pIC50 value belongs to CN(CCOc1ccc([N+](=O)[O-])cc1)CCc1ccccc1 [Dofe45] ?
A) 6.72

----------
# Tested on: hiPSC-CMs
# TEST_DETAILS: Optical measurement of action potential duration (APD90) in hiPSC-CMs using voltage-sensitive dye di-4-ANEPPS
# MEASUREMENT_SETUP: Homo sapiens, 0.5 h, read-out: Changes in APD90 in hiPSC-CMs
This listing pairs compounds with measured activity at 0.1 µM.
Give your result in % as a bare value.

CN(CCCOc1ccc([N+](=O)[O-])cc1)Cc1ccc([N+](=O)[O-])cc1
420
CN(CCOc1ccc(Cl)cc1)CCc1ccccc1
144

Q) Fill blank: measured activity at 0.1 µM of the compound COc1ccc(OCCN(C)CCc2ccccc2)cc1 is ____.
A) 92

Q) Requested read-out: activity at 0.1 µM. Entry: CN(CCOc1ccccc1)CCc1ccccc1
A) 105

Q) Record request: activity at 0.1 µM value, item CN(CCOc1ccc(Cl)cc1)CCc1ccc(Cl)cc1
A) 108

Q) Reported activity at 0.1 µM, compound CN(CCOc1ccc([N+](=O)[O-])cc1)CCc1ccccc1 : ____
A) 89

Q) # lookup: activity at 0.1 µM of Cc1ccc(OCCN(C)CCc2ccccc2)cc1
A) 156

Q) If you can, please state the reported activity at 0.1 µM value of CN(CCOc1ccc(Cl)c(Cl)c1)CCc1ccccc1 .
A) 83

----------
Parameter pIC50: see the listing below.
# TARGET_SYSTEM: Nav1.5 (Homo sapiens, UniProt Q14524)
# Sequence (Q14524 whole entry): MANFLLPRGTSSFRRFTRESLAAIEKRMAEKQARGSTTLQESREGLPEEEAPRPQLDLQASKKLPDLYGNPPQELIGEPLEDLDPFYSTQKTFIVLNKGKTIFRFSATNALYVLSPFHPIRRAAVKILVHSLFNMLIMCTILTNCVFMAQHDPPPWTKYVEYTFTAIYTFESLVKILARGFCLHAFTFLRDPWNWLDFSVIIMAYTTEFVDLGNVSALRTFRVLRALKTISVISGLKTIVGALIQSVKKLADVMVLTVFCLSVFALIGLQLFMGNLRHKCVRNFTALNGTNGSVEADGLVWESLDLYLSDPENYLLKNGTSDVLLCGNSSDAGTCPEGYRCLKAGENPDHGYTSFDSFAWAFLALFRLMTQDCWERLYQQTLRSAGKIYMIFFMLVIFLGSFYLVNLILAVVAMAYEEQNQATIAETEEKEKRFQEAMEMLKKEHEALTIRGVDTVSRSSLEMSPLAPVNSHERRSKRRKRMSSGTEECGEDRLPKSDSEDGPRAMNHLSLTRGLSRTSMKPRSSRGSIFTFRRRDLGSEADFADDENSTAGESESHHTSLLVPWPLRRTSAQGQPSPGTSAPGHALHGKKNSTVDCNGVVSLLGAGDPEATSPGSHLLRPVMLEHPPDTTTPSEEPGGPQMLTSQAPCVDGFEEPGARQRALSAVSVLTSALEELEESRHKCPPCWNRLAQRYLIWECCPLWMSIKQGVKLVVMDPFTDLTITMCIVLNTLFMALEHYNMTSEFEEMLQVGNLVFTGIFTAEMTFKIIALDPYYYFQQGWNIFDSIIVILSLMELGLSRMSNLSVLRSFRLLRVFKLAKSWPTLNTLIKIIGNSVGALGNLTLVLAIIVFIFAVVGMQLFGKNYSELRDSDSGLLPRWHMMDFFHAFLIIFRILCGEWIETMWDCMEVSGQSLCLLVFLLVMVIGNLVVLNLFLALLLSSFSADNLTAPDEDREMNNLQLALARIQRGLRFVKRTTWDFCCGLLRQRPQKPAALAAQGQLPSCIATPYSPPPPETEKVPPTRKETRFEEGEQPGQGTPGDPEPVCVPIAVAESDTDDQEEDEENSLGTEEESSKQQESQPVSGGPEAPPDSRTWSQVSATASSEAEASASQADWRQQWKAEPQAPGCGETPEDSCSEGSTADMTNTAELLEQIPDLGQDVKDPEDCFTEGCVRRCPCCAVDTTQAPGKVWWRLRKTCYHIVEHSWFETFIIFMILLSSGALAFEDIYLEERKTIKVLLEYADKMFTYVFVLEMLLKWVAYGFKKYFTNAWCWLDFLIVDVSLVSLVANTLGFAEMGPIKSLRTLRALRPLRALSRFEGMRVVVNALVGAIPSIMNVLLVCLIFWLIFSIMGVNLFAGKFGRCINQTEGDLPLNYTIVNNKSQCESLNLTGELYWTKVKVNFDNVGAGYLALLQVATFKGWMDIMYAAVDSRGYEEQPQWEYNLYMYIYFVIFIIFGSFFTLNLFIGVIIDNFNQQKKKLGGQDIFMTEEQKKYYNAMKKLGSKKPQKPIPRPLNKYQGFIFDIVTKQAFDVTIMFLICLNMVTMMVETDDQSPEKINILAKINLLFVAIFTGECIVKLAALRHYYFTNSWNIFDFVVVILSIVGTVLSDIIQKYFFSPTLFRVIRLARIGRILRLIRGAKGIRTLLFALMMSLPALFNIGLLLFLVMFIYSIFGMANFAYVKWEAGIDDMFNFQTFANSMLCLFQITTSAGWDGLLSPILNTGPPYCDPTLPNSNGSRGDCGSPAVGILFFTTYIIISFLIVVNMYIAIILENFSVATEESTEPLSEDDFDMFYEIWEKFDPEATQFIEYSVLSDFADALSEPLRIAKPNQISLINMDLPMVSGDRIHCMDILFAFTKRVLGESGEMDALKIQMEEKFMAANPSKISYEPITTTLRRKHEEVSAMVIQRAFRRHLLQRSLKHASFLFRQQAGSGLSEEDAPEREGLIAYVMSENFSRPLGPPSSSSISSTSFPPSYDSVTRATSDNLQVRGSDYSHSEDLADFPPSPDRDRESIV
# TEST_DETAILS: Sodium current inhibition in HEK cells stably expressing Nav1.5, planar patch clamp
# MEASUREMENT_SETUP: Nav1.5 IC50 (peak INa inhibition), holding potential -80 mV
# Protocol: Currents were low‐pass filtered at 10 kHz using the internal Bessel filter and sampled at 25 kHz. The extracellular solution for hERG current recording contained 140 mM NaCl, 4 mM KCl, 2 mM CaCl2, 1 mM MgCl2,5 mM D‐glucose and 10 mM HEPES (pH 7.4) (Sigma‐Aldrich). The intracellular solution for hERG current recording contained 50 mM KCl, 10 mM NaCl, 60 mM KF, 20 mM EGTA and 10 mM HEPES (pH 7.2). […]
pIC50 here is simply -log10 of the concentration when that concentration is written in mol/L.

CN(CCOc1ccc(Cl)c(Cl)c1)CCc1ccccc1 [Dofe44]
5.33

Q) Name the reported pIC50 value associated with the molecule COc1ccc(OCCN(C)CCc2ccccc2)cc1 [Dofe42]
A) 4.86

----------
# System: hiPSC-CMs
# TEST_DETAILS: Optical measurement of action potential duration (APD90) in hiPSC-CMs using voltage-sensitive dye di-4-ANEPPS
# MEASUREMENT_SETUP: Homo sapiens, read-out: D150 (concentration that prolongs the AP by 50%), APD90 in hiPSC-CMs
EXPERIMENTAL_ENDPOINT: EC (50% APD prolongation) (µM)
Number only, in µM; omit the unit.

CN(CCCOc1ccc([N+](=O)[O-])cc1)Cc1ccc([N+](=O)[O-])cc1 [Dofe78]
0.02
CN(CCOc1ccccc1)CCc1ccccc1 [Dofe30]
0.213
CN(CCOc1ccc(Cl)cc1)CCc1ccc(Cl)cc1 [Dofe31]
0.151

# input for lookup
Q) Name the reported EC (50% APD prolongation) value associated with the compound CN(CCOc1ccc(NS(C)(=O)=O)cc1)CCc1ccc(NS(C)(=O)=O)cc1 [Dofetilide, reference compound]
A) 4e-05

----------
Each entry below carries its recorded Maximal AP prolongation.
# Test system: hiPSC-CMs
# TEST_DETAILS: Optical measurement of action potential duration (APD90) in hiPSC-CMs using voltage-sensitive dye di-4-ANEPPS
# MEASUREMENT_SETUP: hiPSC-CMs, maximal level over concentrations tested

Known Maximal AP prolongation results, listed for orientation:
O=[N+]([O-])c1ccc(CCN(CCF)CCOc2ccc([N+](=O)[O-])cc2)cc1
≤ 1000%
CN(CCCOc1ccc([N+](=O)[O-])cc1)Cc1ccc([N+](=O)[O-])cc1
≤ 1000%

Q) Missing value: Maximal AP prolongation, hiPSC-CMs, entry Cc1ccc(CCN(C)CCOc2ccc(C)cc2)cc1 . Fill in?
A) 250%

Q) Form field: Maximal AP prolongation recorded for CN(CCCCOc1ccc([N+](=O)[O-])cc1)CCc1ccc([N+](=O)[O-])cc1 with hiPSC-CMs (enter value)
A) ≤ 1000%

Q) Query Maximal AP prolongation on hiPSC-CMs for CN(CCOc1ccc([N+](=O)[O-])cc1)CCc1ccc([N+](=O)[O-])cc1
A) ≤ 1000%

Q) Give hiPSC-CMs Maximal AP prolongation for CCN(CCOc1ccc([N+](=O)[O-])cc1)CCc1ccc([N+](=O)[O-])cc1
A) ≤ 1000%

----------
# Tested on: hiPSC-CMs
# TEST_DETAILS: Optical measurement of action potential duration (APD90) in hiPSC-CMs using voltage-sensitive dye di-4-ANEPPS
# MEASUREMENT_SETUP: Homo sapiens, read-out: D150 (concentration that prolongs the AP by 50%), APD90 in hiPSC-CMs
EXPERIMENTAL_ENDPOINT: EC (50% APD prolongation)

For orientation, consider the following solved cases.
CN(CCOc1ccc(Cl)cc1)CCc1ccccc1 [Dofe41]
0.157 µM
Cc1ccc(OCCN(C)CCc2ccccc2)cc1 [Dofe43]
0.0993 µM
CN(CCOc1ccc(Cl)c(Cl)c1)CCc1ccccc1 [Dofe44]
> 0.6 µM

Shifting focus to the compound that follows.
Q) Which EC (50% APD prolongation) value belongs to CN(CCOc1ccc([N+](=O)[O-])cc1)CCc1ccccc1 [Dofe45] ?
A) 0.538 µM
